Origin of measurements: patent US7041785B1

For each record, write down the corresponding Kb.
Target: UniProt Q28642
Sequence (Q28642 1-367): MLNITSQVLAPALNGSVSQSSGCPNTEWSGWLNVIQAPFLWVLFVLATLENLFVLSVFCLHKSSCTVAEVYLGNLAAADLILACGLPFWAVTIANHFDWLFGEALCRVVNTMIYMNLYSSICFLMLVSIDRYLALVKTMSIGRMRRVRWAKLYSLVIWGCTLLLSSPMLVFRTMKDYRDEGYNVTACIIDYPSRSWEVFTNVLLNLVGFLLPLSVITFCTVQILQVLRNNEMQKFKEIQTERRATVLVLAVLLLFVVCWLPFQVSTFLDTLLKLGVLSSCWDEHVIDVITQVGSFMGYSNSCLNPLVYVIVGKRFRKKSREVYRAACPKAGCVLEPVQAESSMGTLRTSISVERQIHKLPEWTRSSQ
Assay: cell-based
Procedure: Tissues were taken from New Zealand white rabbits (1.5–2.5 kg) and Dunken Hartley guinea pigs (250–350 g) of either sex, killed by stunning and exsanguination. […] Changes of tension produced by the various agents were measured with Grass isometric transducers (model FT 03C, Grass Instrument Co., Quincy, Mass.). […] Before testing the drugs, the tissues were allowed to equilibrate for 60–120 min during which time the tissues were repeatedly washed and the tension readjusted every 15 min. […]
Non-standard residues stand in square brackets, D forms with d. Residues, ends and D or L forms follow the SMILES beside them. Tyr(3,5-I2) = N[C@@H](Cc1cc(I)c(O)c(I)c1)C(=O)O; Oic = O=C(O)[C@@H]1C[C@@H]2CCCC[C@@H]2N1; 2Nal = N[C@@H](Cc1ccc2ccccc2c1)C(=O)O; d2Nal = N[C@H](Cc1ccc2ccccc2c1)C(=O)O; Hyp = O=C(O)[C@@H]1C[C@@H](O)CN1; dTic = O=C(O)[C@H]1Cc2ccccc2CN1; 2Thi = N[C@@H](Cc1cccs1)C(=O)O; Ahx = NCCCCCC(=O)O; Sar = CNCC(=O)O

Which measured Kb value corresponds to N=C(N)NCCC[C@@H](N)C(=O)N[C@@H](CCCNC(=N)N)C(=O)N1CCC[C@H]1C(=O)N1C[C@H](O)C[C@H]1C(=O)NCC(=O)N[C@@H](Cc1ccccc1)C(=O)N[C@@H](CO)C(=O)N[C@H](Cc1ccccc1)C(=O)N[C@@H](Cc1ccccc1)C(=O)O [Compound 6, D-Arg(Hyp^3, D-Phe^7)desArg^9BK] (H-[dR]RP[Hyp]GFS[dF]F-OH; N-terminus and C-terminus assumed) ?
2.34 µM

Next: N=C(N)NCCC[C@@H](N)C(=O)N[C@@H](CCCNC(=N)N)C(=O)N1CCC[C@H]1C(=O)N1C[C@H](O)C[C@H]1C(=O)NCC(=O)N[C@@H](Cc1ccccc1)C(=O)N[C@@H](CO)C(=O)N1Cc2ccccc2C[C@@H]1C(=O)N[C@@H](Cc1ccccc1)C(=O)O [Compound 16, D-Arg(Hyp^3, D-Tic^7)desArg^9BK] (H-[dR]RP[Hyp]GFS[dTic]F-OH; N-terminus and C-terminus assumed)
> 2.19 µM

Next: N=C(N)NCCC[C@@H](N)C(=O)N[C@@H](CCCNC(=N)N)C(=O)N1CCC[C@H]1C(=O)N1C[C@H](O)C[C@H]1C(=O)NCC(=O)N[C@@H](Cc1cccs1)C(=O)N[C@@H](CO)C(=O)N1Cc2ccccc2C[C@@H]1C(=O)N1[C@H](C(=O)O)C[C@@H]2CCCC[C@@H]21 [Compound 31, reference compound] (H-[dR]RP[Hyp]G[2Thi]S[dTic][Oic]-OH; N-terminus and C-terminus assumed)
0.0417 µM

Next: CC[C@H](C)[C@H](NC(=O)[C@H](Cc1ccc2ccccc2c1)NC(=O)[C@H](CO)NC(=O)[C@H](Cc1ccccc1)NC(=O)CNC(=O)[C@@H]1CCCN1C(=O)[C@@H]1CCCN1C(=O)[C@H](CCCNC(=N)N)NC(=O)[C@H](CCCCN)NC(C)=O)C(=O)O [Compound 20, AcLys(L-βNal^7, Ile^8)desArg^9BK] (Ac-KRPPGFS[2Nal]I-OH; C-terminus assumed)
7.76 µM

Next: CC[C@H](C)[C@H](NC(=O)[C@@H](Cc1ccc2ccccc2c1)NC(=O)[C@H](CO)NC(=O)[C@H](Cc1ccccc1)NC(=O)CNC(=O)[C@@H]1CCCN1C(=O)[C@@H]1CCCN1C(=O)[C@H](CCCNC(=N)N)NC(=O)CNC)C(=O)O [Compound 26, Sar(D-βNal^7, Ile^8)desArg^9BK] (H-[Sar]RPPGFS[d2Nal]I-OH; N-terminus and C-terminus assumed)
9.12 µM

Next: CC[C@H](C)[C@H](NC(=O)[C@H]1Cc2ccccc2CN1C(=O)[C@H](CO)NC(=O)[C@H](Cc1ccccc1)NC(=O)CNC(=O)[C@@H]1CCCN1C(=O)[C@@H]1CCCN1C(=O)[C@H](CCCNC(=N)N)NC(=O)[C@H](N)CCCNC(=N)N)C(=O)O [Compound 13, D-Arg(D-Tic^7, Ile^8)desArg^9BK] (H-[dR]RPPGFS[dTic]I-OH; N-terminus and C-terminus assumed)
4.57 µM

Next: CC(C)C[C@H](NC(=O)[C@H]1Cc2ccccc2CN1C(=O)[C@H](CO)NC(=O)[C@H](Cc1ccccc1)NC(=O)CNC(=O)[C@@H]1CCCN1C(=O)[C@@H]1CCCN1C(=O)[C@H](CCCNC(=N)N)NC(=O)[C@H](N)CCCNC(=N)N)C(=O)O [Compound 12, D-Arg(D-Tic^7, Leu^8)desArg^9BK] (H-[dR]RPPGFS[dTic]L-OH; N-terminus and C-terminus assumed)
4.47 µM

Next: CC(C)C[C@H](NC(=O)[C@@H](Cc1ccc2ccccc2c1)NC(=O)[C@H](CO)NC(=O)[C@H](Cc1ccccc1)NC(=O)CNC(=O)[C@@H]1CCCN1C(=O)[C@@H]1CCCN1C(=O)[C@H](CCCNC(=N)N)NC(=O)[C@H](N)CCCNC(=N)N)C(=O)O [Compound 24, D-Arg(D-βNal^7, Leu^8)desArg^9BK] (H-[dR]RPPGFS[d2Nal]L-OH; N-terminus and C-terminus assumed)
3.63 µM

Next: CC[C@H](C)[C@H](NC(=O)[C@@H](Cc1ccc2ccccc2c1)NC(=O)[C@H](CO)NC(=O)[C@H](Cc1ccccc1)NC(=O)CNC(=O)[C@@H]1CCCN1C(=O)[C@@H]1CCCN1C(=O)[C@H](CCCNC(=N)N)NC(=O)[C@H](CCCCN)NC(=O)CCCCCNC(=O)[C@H](Cc1ccc(O)cc1)NC(=O)CNC)C(=O)O [Compound 29, SarTyrεAhxLys(D-βNal^7, Ile^8)desArg^9BK] (H-[Sar]Y[Ahx]KRPPGFS[d2Nal]I-OH; N-terminus and C-terminus assumed)
6.31 µM

Next: CC[C@H](C)[C@H](NC(=O)[C@@H](Cc1ccc2ccccc2c1)NC(=O)[C@H](CO)NC(=O)[C@H](Cc1ccccc1)NC(=O)CNC(=O)[C@@H]1CCCN1C(=O)[C@@H]1CCCN1C(=O)[C@H](CCCNC(=N)N)NC(=O)[C@H](CCCCN)NC(=O)CCCCCNC(=O)[C@H](Cc1cc(I)c(O)c(I)c1)NC(=O)CNC)C(=O)O [Compound 30] (H-[Sar][Tyr(3,5-I2)][Ahx]KRPPGFS[d2Nal]I-OH; N-terminus and C-terminus assumed)
7.41 µM
